Task for the reader: assign each of the following compounds its reported melting point.

Reference set (6 entries):
CCN(c1nc(C)cc(-c2ccccc2C(F)(F)F)n1)c1c(Br)cc(N(C)C)cc1OC; 157 to 158 °C
O=C(Nc1ccccc1)c1ccccc1Cl; 96.4 to 98.3 °C
C=C(OCC)c1c(C)nc(C)nc1NCc1ccc(Br)cc1; 111 to 113 °C
O=[N+]([O-])c1ccc(Oc2c(Cl)cc(C(F)(F)F)cc2Cl)cc1SCc1ccccc1; 207 °C
O=C(Nc1ccc2c(c1)CCC2)OCc1ccccc1; 56 to 59 °C
CC(C)(O)Cc1c(Br)cnc2c(NC(=O)c3c(Cl)cccc3Cl)cccc12; 260 to 262 °C

Lab note: each compound below needs its melting point filled in.
1. CN(C)CCc1cn(C)c2c(F)ccc(OCc3ccccc3)c12
2. C[C@]12C[C@H](c3ccc(OCCCCCCl)cc3)[C@@H]3c4ccc(O)cc4CC[C@H]3[C@@H]1CC[C@@H]2O
3. O=C(Nc1ccc(F)cc1F)Nc1oc(=O)c2ccc(Cl)cc2c1-c1ccccc1
4. Nc1c(C(=O)c2ccccc2)oc2ccccc12
5. CN1C(=O)[C@@](NC(=O)Nc2cccc(N(C)c3nnn[nH]3)c2)(C2CCCCC2)N=Cc2ccccc21

1. 60 to 62 °C
2. 165 °C
3. 196 to 197 °C
4. 122 to 124 °C
5. 222 to 225 °C

* * *

REPORTED PROPERTY: melting point

Reference set (3 entries):
O=C1NC(=O)c2c1c(-c1ccccc1Cl)cc1c2c2cc(O)ccc2n1CC(O)CO (centres undefined); 305 to 309 °C
O=C(O)C1=Cc2cc(Cl)c(Cl)c(Cl)c2OC1C(F)(F)F (centres undefined); 222 to 225 °C
COc1ccc(Nc2ccccc2C(C)=C(Cl)Cl)cc1OC; 94 to 96 °C

What melting point value was documented for this compound, `CCCCc1nc(Cl)c(CC=CO)n1Cc1ccc(NC(=O)c2ccccc2C(=O)O)cc1` ? 150 to 151 °C

* * *

Task for the reader: assign each of the following molecules its reported melting point.

CC(C)Nc1nc(N2CCOCC2)nc2cscc12; 202 °C

Lab note: each molecule below needs its melting point filled in.
1. Clc1ccc2c(c1)N=C(NCc1cccnc1)c1ccccc1O2
2. O=[N+]([O-])c1sc(-c2cccnc2)nc1Cl
3. CCOC(=O)c1cn(CC2CC2)c2cc(-n3cccc3)c(F)cc2c1=O
4. COc1cccc(C(=O)Nc2nc(C)c(C(=O)NCc3ccccc3)s2)c1
5. CCCc1nn(C)c2c(=S)[nH]c(-c3ccccc3OCC)nc12
6. CC(CC(Br)CO)C1CCC2C(O)CCCC12C (stereo not given)
7. CC(=O)OCC(=O)C1C(C)CC2C3CC(Cl)C4=CC(=O)CCC4(C)C3C(O)CC21C (stereo not given)

1. 167 to 169 °C
2. 110 to 112 °C
3. 125 to 127 °C
4. 75 to 77 °C
5. 156 to 158 °C
6. 153 to 154 °C
7. 209 °C

* * *

REPORTED PROPERTY: melting point

Reference set (3 entries):
N#Cc1ccccc1-n1nnc2cccnc21; 177 to 179 °C
CS(=O)(=O)c1ccc(Oc2cc(OCC3CCOCC3)c3[nH]c(C4=NCC(CCO)S4)cc3c2)cc1 (centres undefined); 104 to 105 °C
CN(CC(O)c1ccc(Cl)c(Cl)c1)C(=O)OC(C)(C)C (centres undefined); 88 °C

Next compound, melting point to be filled in.
What melting point value was documented for this compound, `CCOC(=O)C=Cc1cc(OCc2ccccc2)ccc1-c1ccc(-c2cccc(C)c2)c(C=O)c1` ? 90 to 92 °C
